Data provenance: ChEMBL document CHEMBL1133129

# Tested on: MC-38
# assay.notes: In vitro antiproliferative activity measured against colon 38 cancer cell line using MTT colorimetric assay
# Type: functional, cell-based
# details: Mus musculus
Give IC50 for every item shown.
Write the number in µg/mL without appending the unit.

Request: Record Nc1ccc(S(=O)(=O)Nc2cccc3cc(O)[nH]c23)cc1 : what is its IC50 with MC-38?
Result: 1.8

Request: Record Cc1ccc(S(=O)(=O)Nc2cccc3cc(Cl)[nH]c23)cc1 : what is its IC50 with MC-38?
Result: 0.18

Request: Record COc1ccc(S(=O)(=O)Nc2cc(Cl)cc3cc[nH]c23)cc1 : what is its IC50 with MC-38?
Result: 0.64

Request: Record Nc1ccc(S(=O)(=O)Nc2ccc(F)c3c(Cl)c[nH]c23)cc1 : what is its IC50 with MC-38?
Result: 0.11

Request: Record Nc1ccc(S(=O)(=O)Nc2ccc(Br)c3c(Cl)c[nH]c23)cc1 : what is its IC50 with MC-38?
Result: 0.14

Request: Record Nc1ccc(S(=O)(=O)Nc2ccc(-c3ccccc3)c3c(Cl)c[nH]c23)cc1 : what is its IC50 with MC-38?
Result: 19

Request: Record Cc1ccc(NS(=O)(=O)c2ccc(N)cc2)c2[nH]cc(Cl)c12 : what is its IC50 with MC-38?
Result: 0.1

Request: Record O=[N+]([O-])c1ccc(S(=O)(=O)Nc2cc(Cl)cc3cc[nH]c23)cc1 : what is its IC50 with MC-38?
Result: 13

Request: Record N#Cc1ccc(S(=O)(=O)Nc2ccc(Cl)c3c(Cl)c[nH]c23)cc1 : what is its IC50 with MC-38?
Result: 0.12

Request: Record O=[N+]([O-])c1ccc(S(=O)(=O)Nc2cccc3cc(Cl)[nH]c23)cc1 : what is its IC50 with MC-38?
Result: 19

Request: Record COc1ccc(NS(=O)(=O)c2ccc(N)cc2)c2[nH]cc(Cl)c12 : what is its IC50 with MC-38?
Result: 2.3

Request: Record Nc1ccc(S(=O)(=O)Nc2cccc3cc(Cl)[nH]c23)cc1 : what is its IC50 with MC-38?
Result: 2.9

Request: Record O=[N+]([O-])c1ccc(S(=O)(=O)Nc2cccc3cc[nH]c23)cc1 : what is its IC50 with MC-38?
Result: 7.2

Request: Record O=S(=O)(Nc1ccc(Cl)c2cc[nH]c12)c1ccc(Cl)cc1 : what is its IC50 with MC-38?
Result: 0.66

Request: Record O=[N+]([O-])c1ccc(S(=O)(=O)Nc2ccc(Cl)c3cc[nH]c23)cc1 : what is its IC50 with MC-38?
Result: 0.67

Request: Record O=S(=O)(Nc1cc(Cl)cc2cc[nH]c12)c1ccc(Cl)cc1 : what is its IC50 with MC-38?
Result: 8.5

Request: Record O=S(=O)(Nc1cccc2c(Cl)c[nH]c12)c1ccc(Cl)cc1 : what is its IC50 with MC-38?
Result: 0.28

Request: Record O=[N+]([O-])c1ccc(S(=O)(=O)Nc2cccc3cc(O)[nH]c23)cc1 : what is its IC50 with MC-38?
Result: 62

Request: Record COc1ccc(S(=O)(=O)Nc2ccc(Cl)c3cc[nH]c23)cc1 : what is its IC50 with MC-38?
Result: 0.65

Request: Record O=[N+]([O-])c1ccc(S(=O)(=O)Nc2cccc3c(Cl)c[nH]c23)cc1 : what is its IC50 with MC-38?
Result: 0.34

Request: Record Nc1ccc(S(=O)(=O)Nc2ccc(Cl)c3c(Cl)c[nH]c23)cc1 : what is its IC50 with MC-38?
Result: 0.1

Request: Record N#Cc1ccc(S(=O)(=O)Nc2ccc(Cl)c3cc[nH]c23)cc1 : what is its IC50 with MC-38?
Result: 0.22

Request: Record COc1ccc(S(=O)(=O)Nc2cccc3cc(O)[nH]c23)cc1 : what is its IC50 with MC-38?
Result: 0.22

Request: Record O=S(=O)(Nc1cccc2cc(O)[nH]c12)c1ccc(Cl)cc1 : what is its IC50 with MC-38?
Result: 4.5

* * *

# target.under.test: Tubulin (Bos taurus) (UniProt Q6B856+Q862L2+Q862F3)
# assay.notes: Compound was tested against bovine brain tubulin polymerization; active
# Assay type: functional
Calls of active or inactive are those of the source. The rule behind the calls is not given here.
observation.type: Activity

[[record]]
smiles_notation = "COc1ccc(S(=O)(=O)Nc2cccc3cc(Cl)[nH]c23)cc1"
target_under_test = "Tubulin (Bos taurus) (UniProt Q6B856+Q862L2+Q862F3)"
test_value = "Active"

[[record]]
smiles_notation = "O=S(=O)(Nc1cccc2cc(Cl)[nH]c12)c1ccc(Cl)cc1"
target_under_test = "Tubulin (Bos taurus) (UniProt Q6B856+Q862L2+Q862F3)"
test_value = "Active"

[[record]]
smiles_notation = "Cc1ccc(S(=O)(=O)Nc2cccc3cc(O)[nH]c23)cc1"
target_under_test = "Tubulin (Bos taurus) (UniProt Q6B856+Q862L2+Q862F3)"
test_value = "Active"

[[record]]
smiles_notation = "COc1ccc(S(=O)(=O)Nc2cccc3c(Cl)c[nH]c23)cc1"
target_under_test = "Tubulin (Bos taurus) (UniProt Q6B856+Q862L2+Q862F3)"
test_value = "Active"


* * *

# Tested on: P388
# assay.notes: In vitro antiproliferative activity measured against P388 cancer cell line using MTT colorimetric assay
# Assay type: functional, cell-based
# details: Mus musculus
observation.type: log10(IC50) (log10 of the value in µg/mL)
Units before log transform: µg/mL; reported quantity: IC50; transform: log10.

Request: Look up log10(IC50) for this compound: O=[N+]([O-])c1ccc(S(=O)(=O)Nc2cccc3cc(Cl)[nH]c23)cc1
Result: 1.32

Request: Look up log10(IC50) for this compound: O=[N+]([O-])c1ccc(S(=O)(=O)Nc2cc(Cl)cc3cc[nH]c23)cc1
Result: 1.11

Request: Look up log10(IC50) for this compound: O=S(=O)(Nc1cc(Cl)cc2cc[nH]c12)c1ccc(Cl)cc1
Result: 1.00

Request: Look up log10(IC50) for this compound: Nc1ccc(S(=O)(=O)Nc2ccc(Br)c3c(Cl)c[nH]c23)cc1
Result: -0.19

Request: Look up log10(IC50) for this compound: COc1ccc(S(=O)(=O)Nc2cc(Cl)cc3cc[nH]c23)cc1
Result: -0.57

Request: Look up log10(IC50) for this compound: O=[N+]([O-])c1ccc(S(=O)(=O)Nc2ccc(Cl)c3cc[nH]c23)cc1
Result: 0.52

Request: Look up log10(IC50) for this compound: O=[N+]([O-])c1ccc(S(=O)(=O)Nc2cccc3c(Cl)c[nH]c23)cc1
Result: 0.36

Request: Look up log10(IC50) for this compound: N#Cc1ccc(S(=O)(=O)Nc2ccc(Cl)c3c(Cl)c[nH]c23)cc1
Result: -0.23

Request: Look up log10(IC50) for this compound: Cc1ccc(NS(=O)(=O)c2ccc(N)cc2)c2[nH]cc(Cl)c12
Result: -0.43

Request: Look up log10(IC50) for this compound: COc1ccc(NS(=O)(=O)c2ccc(N)cc2)c2[nH]cc(Cl)c12
Result: 0.74

* * *

# System: P388
# assay.notes: In vitro antiproliferative activity measured against P388 cancer cell line using MTT colorimetric assay
# Type: functional, cell-based
# details: Mus musculus
observation.type: IC50 (µg/mL)
Write the number in µg/mL without appending the unit.

Request: Look up IC50 for this compound: COc1ccc(S(=O)(=O)Nc2ccc(Cl)c3cc[nH]c23)cc1
Result: 1.1

Request: Look up IC50 for this compound: COc1ccc(S(=O)(=O)Nc2cccc3cc(O)[nH]c23)cc1
Result: 0.11

Request: Look up IC50 for this compound: Nc1ccc(S(=O)(=O)Nc2ccc(F)c3c(Cl)c[nH]c23)cc1
Result: 0.51

Request: Look up IC50 for this compound: Nc1ccc(S(=O)(=O)Nc2ccc(-c3ccccc3)c3c(Cl)c[nH]c23)cc1
Result: 19

Request: Look up IC50 for this compound: Nc1ccc(S(=O)(=O)Nc2cccc3cc(Cl)[nH]c23)cc1
Result: 2.2

Request: Look up IC50 for this compound: O=S(=O)(Nc1cccc2cc(O)[nH]c12)c1ccc(Cl)cc1
Result: 2.2

Request: Look up IC50 for this compound: Nc1ccc(S(=O)(=O)Nc2ccc(Cl)c3c(Cl)c[nH]c23)cc1
Result: 0.49

Request: Look up IC50 for this compound: O=[N+]([O-])c1ccc(S(=O)(=O)Nc2cccc3cc[nH]c23)cc1
Result: 8.2

Request: Look up IC50 for this compound: O=S(=O)(Nc1cccc2c(Cl)c[nH]c12)c1ccc(Cl)cc1
Result: 4.3

Request: Look up IC50 for this compound: O=S(=O)(Nc1ccc(Cl)c2cc[nH]c12)c1ccc(Cl)cc1
Result: 4.6

Request: Look up IC50 for this compound: Nc1ccc(S(=O)(=O)Nc2cccc3cc(O)[nH]c23)cc1
Result: 1.2
